// h (hill slope) of MSN–CD44 TR-FRET dose response lookup, one value per entry
# Target System: MSN–CD44 interaction (Homo sapiens)
# Sequence (P26038 1-345): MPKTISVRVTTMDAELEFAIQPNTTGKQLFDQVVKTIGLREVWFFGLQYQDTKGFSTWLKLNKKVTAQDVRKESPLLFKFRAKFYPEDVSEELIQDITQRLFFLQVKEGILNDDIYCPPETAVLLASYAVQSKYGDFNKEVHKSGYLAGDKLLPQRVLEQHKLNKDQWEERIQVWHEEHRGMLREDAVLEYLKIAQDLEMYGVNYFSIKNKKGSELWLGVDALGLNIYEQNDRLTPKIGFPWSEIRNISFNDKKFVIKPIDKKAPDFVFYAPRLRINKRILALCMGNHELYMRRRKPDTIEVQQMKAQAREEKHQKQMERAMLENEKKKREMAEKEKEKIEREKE
# Procedure Summary: MSN–CD44 TR-FRET assay
# Assay type: binding
Endpoint: h (hill slope) of MSN–CD44 TR-FRET dose response

molecular_string=O=C(Nc1ccc(-c2nc3ccccc3[nH]2)cc1)c1cccc(Cl)c1 quantitative_readout=2.3
molecular_string=COc1ccccc1C(=O)Nc1ccc(-c2nc3ccccc3[nH]2)cc1 quantitative_readout=15.8
molecular_string=COc1ccc(C(=O)Nc2ccc(-c3nc4ccccc4[nH]3)cc2)c(OC)c1 quantitative_readout=2.4
molecular_string=Nc1ccc(C(=O)Nc2ccc(-c3nc4ccc(NC(=O)c5ccc(N)cc5)cc4s3)cc2)cc1.O=C(O)C(F)(F)F.O=C(O)C(F)(F)F quantitative_readout=1.7
